Quick list: inhibition at 0.1 µM per entry.
biological target: human recombinant adrenergic α2A receptor (Homo sapiens, UniProt P08913); construct: expressed in transfected cells; host or cells: insect Sf9 cells; assay: Radioligand binding, adrenergic α2A ([3H]MK-912); settings: 0.1 μM compound; read-out: Percentage inhibition of ligand binding, Adrenergic α2A
Sequence (P08913 whole entry): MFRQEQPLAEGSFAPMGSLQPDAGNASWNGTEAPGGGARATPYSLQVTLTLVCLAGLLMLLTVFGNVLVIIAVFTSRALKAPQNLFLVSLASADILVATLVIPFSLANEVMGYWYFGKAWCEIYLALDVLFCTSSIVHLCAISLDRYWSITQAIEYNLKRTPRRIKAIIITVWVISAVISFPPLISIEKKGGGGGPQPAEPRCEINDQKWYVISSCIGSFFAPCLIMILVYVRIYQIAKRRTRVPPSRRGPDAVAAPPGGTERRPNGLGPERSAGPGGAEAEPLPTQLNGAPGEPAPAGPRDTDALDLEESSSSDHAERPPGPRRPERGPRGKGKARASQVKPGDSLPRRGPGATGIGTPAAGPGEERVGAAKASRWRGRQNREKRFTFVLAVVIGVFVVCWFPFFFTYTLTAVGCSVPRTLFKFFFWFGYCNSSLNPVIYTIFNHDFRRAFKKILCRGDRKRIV
Could you give me the number in %? Just the number is fine.

// below: answered compounds
>>> print(df.to_string())
                                   compound  resultunit  endpointvalue
0  C/C(=C\n1c2c(c3cc(C)ccc31)CN(C)CC2)c1cncc2ccccc12           %             58
1  Cc1csc(C2=C(n3c4c(c5cc(C)ccc53)CN(C)CC4)CCC2)c1           %             79
2  COc1cc(/C(C)=C/n2c3c(c4cc(C)ccc42)CN(C)CC3)ccn1           %             61

Summary for this compound, C/C(=C/n1c2c(c3cc(C)ccc31)CN(C)CC2)c1ccc(F)cc1F : inhibition at 0.1 µM is 94

Form: compound = Cc1ccc2c(c1)c1c(n2CC(O)c2ccnc3ccccc23)CCN(C)C1 (stereo not drawn) ; inhibition at 0.1 µM = 19

So for Cc1ccc(CCn2c3c(c4ccc(Cl)cc42)CN(C)CC3)cn1 , the logged inhibition at 0.1 µM turned out to be 59

====

Target: rat adrenergic α1B receptor (Rattus norvegicus, UniProt P15823)
Construct: rat adrenergic α1B receptor obtained from Wistar Rat liver; from tissue; host or cells: Wistar rat liver
Sequence (P15823 whole entry): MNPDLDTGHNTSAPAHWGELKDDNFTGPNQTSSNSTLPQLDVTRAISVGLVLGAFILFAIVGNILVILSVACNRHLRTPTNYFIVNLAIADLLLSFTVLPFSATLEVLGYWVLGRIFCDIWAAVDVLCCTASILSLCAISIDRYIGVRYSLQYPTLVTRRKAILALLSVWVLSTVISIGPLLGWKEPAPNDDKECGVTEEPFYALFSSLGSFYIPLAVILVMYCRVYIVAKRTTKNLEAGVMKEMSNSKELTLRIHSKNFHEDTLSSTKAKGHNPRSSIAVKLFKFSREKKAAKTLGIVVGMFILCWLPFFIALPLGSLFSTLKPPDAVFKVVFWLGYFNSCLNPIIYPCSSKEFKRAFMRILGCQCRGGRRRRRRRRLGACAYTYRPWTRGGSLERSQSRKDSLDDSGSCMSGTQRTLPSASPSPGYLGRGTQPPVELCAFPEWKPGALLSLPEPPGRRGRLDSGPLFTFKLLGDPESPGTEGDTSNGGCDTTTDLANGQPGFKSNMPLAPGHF
Experiment: Radioligand binding, adrenergic α1B ([3H]Prazosin)
Details: compound at 0.03 μM; [3H]Prazosin; repeat assays, each datapoint shown; read-out: Percentage inhibition of ligand binding, Adrenergic α1B
Method: To evaluate in radioligand binding assays the activity of compounds of the invention, rat adrenergic α1B receptor obtained from Wistar Rat liver (Garcia-S'ainz, J. et al, Biochem. Biophys. Res. Commun. 186:760, 1992; Michel, A. et al, Br. J. Pharmacol. 98:883, 1989) in a modified Tris-HCl buffer (50 mM Tris-HCl buffer, pH 7.4, 0.5 mM EDTA) was used. […] Receptor proteins were filtered and washed, the filters were then counted to determine [^3H]Prazosin specifically bound. […]
# Lookup of reported inhibition at 0.03 µM keyed by entry
Note: unit % is implicit; provide only the numeric part.

For orientation, consider the following solved cases.
>>> print(df.to_string())
                                   molecule           quantitykind  resultunit  endpointvalue
0  CN1CCc2c(n(CC(O)c3ccncc3)c3ccc(Cl)cc23)CC1 (single isomer, unassigned) [15b]  inhibition at 0.03 µM           %             73
1  Cc1ccc2c(c1)c1c(n2CCc2ccc(CO)nc2)CCN(C)C1  inhibition at 0.03 µM           %             25
2  Cc1ccc2c(c1)c1c(n2CC(O)c2ccc(F)cc2)CCN(C)C1 (single isomer, unassigned) [30b]  inhibition at 0.03 µM           %             68

Now consider a different molecule.
Known value: rat adrenergic α1B receptor (Rattus norvegicus, UniProt P15823) inhibition at 0.03 µM of the molecule Cc1ccc2c(c1)c1c(n2CC(C)(O)c2cccnc2)CN(C)CC1 (single isomer, unassigned) [14a] equals 17

====

biological target: human recombinant adrenergic α2A receptor (Homo sapiens); construct: expressed in transfected cells; host or cells: insect Sf9 cells; experiment: Radioligand binding, adrenergic α2A ([3H]MK-912); conditions: compound at 0.1 μM; [3H]MK-912; repeat datapoints each shown; 0.1 µM
quantityKind: Percentage inhibition of ligand binding, Adrenergic α2A (0.1 μM) (%)
Provide the reading as a plain figure in %.

Documented Percentage inhibition of ligand binding, Adrenergic α2A (0.1 μM) of CC1Cc2c(c3cc(Cl)ccc3n2CC(C)(O)c2cccnc2)CN1C (single isomer, unassigned) [II-147c] : 3

====

target: rat adrenergic α1B receptor (Rattus norvegicus, UniProt P15823); construct: rat adrenergic α1B receptor obtained from Wistar Rat liver; from tissue; host or cells: Wistar rat liver; assay: Radioligand binding, adrenergic α1B ([3H]Prazosin); conditions: read-out: Percentage inhibition of ligand binding, Adrenergic α1B (0.1 μM), compound at 0.1 μM; [3H]Prazosin; repeat datapoints each shown
quantityKind: inhibition at 0.1 µM
Please make sure the unit comes right after the number.

# annotated cases, reported inhibition at 0.1 µM shown
>>> print(df.to_string())
                                   compound  endpointvalue
0  CC(=O)Nc1ccc(/C(C)=C/n2c3c(c4cc(C)ccc42)CN(C)CC3)cn1 [compound 112]            44%
1  Cc1ccc2c(c1)c1c(n2CC(=O)c2ccc(F)cc2)CCN(C)C1 [compound 94]            40%
2  CNC(Cn1c2c(c3cc(C)ccc31)CN(C)CC2)c1ccncc1 (single isomer, unassigned) [151a]            11%

For this compound ( Cc1ccc2c(c1)c1c(n2CC(O)c2cnn(C)c2)CCN(C)C1 (single isomer, unassigned) [131b] ), measured inhibition at 0.1 µM is 36%

inhibition at 0.1 µM for C/C(=C\n1c2c(c3cc(C)ccc31)CCN(C)C2)c1ccc(Cl)cc1 [compound 224] is 70%

The compound Cc1ccc2c(c1)c1c(n2CC(CC(=O)C(C)(C)C)c2ccncc2)CCN(C)C1 (centres unmarked) [II-222] showed inhibition at 0.1 µM equal to 19%

Note to self: inhibition at 0.1 µM recorded for Cc1cnc2c(c1)c1c(n2CC(N=[N+]=[N-])c2ccncc2)CCN(C)C1 (centres unmarked) [V-2] was 49%

Form: compound = Cc1ccc2c(c1)c1c(n2CC(N)c2ccncc2)CN(C)CC1 (centres unmarked) [compound 153] ; inhibition at 0.1 µM = 17%

====

Below, each entry is listed with its recorded Percentage inhibition of ligand binding, Adrenergic α1B (0.1 μM).
molecular target: rat adrenergic α1B receptor (Rattus norvegicus); construct: rat adrenergic α1B receptor obtained from Wistar Rat liver; from tissue; host or cells: Wistar rat liver; experiment: Radioligand binding, adrenergic α1B ([3H]Prazosin); conditions: compound at 0.1 μM; [3H]Prazosin; repeat datapoints each shown; 0.1 µM
Dear colleague, please return just the value in %, with no unit written.

Here are 5 compounds together with their reported answers.
In [3]: df
Out[3]:
                                   compound  endpointvalue
0  Cc1ccc2c(c1)c1c(n2CC(O)c2ccc(C#N)nc2)CCN(C)C1 (centres unmarked) [compound 140]             37
1  COc1ccc(/C(C)=C/n2c3c(c4cc(C)ccc42)CCN(C)CC3)cc1F [compound 241]             82
2  Cc1ccc2c(c1)c1c(n2CC(OC(=O)N(C)C)c2ccncc2)CCN(C)C1 (single isomer, unassigned) [141a]             25
3  Cc1ccc2c(c1)c1c(n2C2=C(c3ccc(C)s3)CCC2)CCN(C)C1 [compound 190]             15
4  Cc1cnc2c(c1)c1c(n2CC(O)c2ccc(C#N)nc2)CCN(C)C1 (single isomer, unassigned) [II-114a]             45

Next compound, Percentage inhibition of ligand binding, Adrenergic α1B (0.1 μM) to be filled in.
Reported Percentage inhibition of ligand binding, Adrenergic α1B (0.1 μM) (rat adrenergic α1B receptor (Rattus norvegicus)) for entry Cc1cc(C)c2c(c1)c1c(n2CC(O)c2ccncc2)CCN2CCCC12 (single isomer, unassigned) [II-125c] is 42

====

target: human recombinant adrenergic α2A receptor (Homo sapiens, UniProt P08913); construct: expressed in transfected cells; host or cells: insect Sf9 cells; assay: Radioligand binding, adrenergic α2A ([3H]MK-912); conditions: compound at 0.1 μM; [3H]MK-912; repeat assays, each datapoint shown; read-out: Percentage inhibition of ligand binding, Adrenergic α2A
Parameter: inhibition at 0.1 µM. Scope: all listed entries.
Unit % implied. Number only.

# annotated cases, reported inhibition at 0.1 µM shown
In [3]: df
Out[3]:
                                   molecule          quantitykind  endpointvalue
0  CN1CCc2c(n(CC(O)c3ccncc3)c3ccc(Cl)cc23)CC1 (single isomer, unassigned) [15b]  inhibition at 0.1 µM             21
1  CN1CCc2c(c3cc(Cl)ccc3n2CCc2cccnc2)C1 [compound 60]  inhibition at 0.1 µM             26
2  CCC(O)(Cn1c2c(c3cc(C)ccc31)CN(C)CC2)c1ccncc1 (stereo not drawn) [35a]  inhibition at 0.1 µM             20
3  CN1CCc2c(c3ccc(C(F)(F)F)cc3n2CC(O)c2cccnc2)C1 (single isomer, unassigned) [40a]  inhibition at 0.1 µM              7
4  CN1CCc2c(c3cc(Cl)ccc3n2CCC(=O)OC2CCCC2)C1 [compound 88]  inhibition at 0.1 µM              2
5  CN1CCc2c(c3cccc(Br)c3n2CC(O)c2ccncc2)C1 (single isomer, unassigned) [48a]  inhibition at 0.1 µM             12

The value of inhibition at 0.1 µM measured for the molecule Cc1ccc2c(c1)c1c(n2CC(O)c2ccncc2)CN(C)CC1 (stereo not drawn) [compound 8] turned out to be 23
